Data origin, for the record: the supplement of paper PMC12494721

tested on: Clostridium sporogenes DSM 1664; assay: growth (OD595) fold change vs plate DMSO controls (fold change (ratio)); higher = more growth; conditions: 1.25 µM; incubation time: 27 h, anaerobic, 37 °C
Where a name gives a salt, the structure may show the parent alone.
A collection of compounds and their measured growth

Some solved entries appear below for comparison.
COMPOUND	growth
CO[C@H]1/C=C/O[C@@]2(C)Oc3c(C)c(O)c4c(O)c(c5c(nc6cc(C)ccn65)c4c3C2=O)NC(=O)/C(C)=C\C=C\[C@H](C)[C@H](O)[C@@H](C)[C@@H](O)[C@@H](C)[C@H](OC(C)=O)[C@@H]1C	0.257
COC(=O)N/N=C/c1c[n+]([O-])c2ccccc2[n+]1[O-]	0.89
CCn1cc(C(=O)O)c(=O)c2cc(F)c(N3CCNCC3)cc21	0.736

Per the record, CN(C)CCn1nnnc1SCC1=C(C(=O)O)N2C(=O)[C@@H](NC(=O)Cc3csc(N)n3)[C@H]2SC1 [Cefotiam hydrochloride] has growth of 0.293

Per the record, CS(=O)(=O)c1ccc([C@@H](O)[C@@H](CF)NC(=O)C(Cl)Cl)cc1 has growth of 0.685

Per the record, Cc1ncc([N+](=O)[O-])n1C has growth of 1.1

Per the record, CC1CCc2cc(F)cc3c(=O)c(C(=O)O)cn1c23 (stereo not drawn) has growth of 1.04

Per the record, Oc1c(Cl)cc(Cl)cc1Sc1cc(Cl)cc(Cl)c1O has growth of 1.2

###

tested on: Ruminococcus gnavus DSM 108212; assay: fold change of Tryptamine concentration vs plate DMSO controls (fold change (ratio)); higher = more amine produced; conditions: 5 µM; incubation time: 27 h, anaerobic, 37 °C
Structures can show the parent of a compound that is named as a salt.
Consider the following partition of reported fold change of Tryptamine concentration into named classes: range A = under 0.4, range B = from 0.4 up to 0.7, range C = 0.7 and over

Solved entries:
COMPOUND	DISCRETE LABEL
Cc1cc(O)c(C(=O)N[C@@H](C(=O)N[C@@H]2C(=O)N3C(C(=O)O)=C(CSc4nnnn4C)CS[C@H]23)c2ccc(O)cc2)cn1 [Cefpiramide]	range A
Cn1nnnc1SCC1=C(C(=O)O)N2C(=O)[C@@H](NC(=O)[C@H](O)c3ccccc3)[C@H]2SC1 [Cefamandole sodium salt]	range B
O=C(N[C@H](CO)[C@H](O)c1ccc([N+](=O)[O-])cc1)C(Cl)Cl	range B
COc1c(N2C[C@@H]3CCCN[C@@H]3C2)c(F)cc2c(=O)c(C(=O)O)cn(C3CC3)c12	range C
N[C@@H]1CCCCN(c2c(F)cc3c(=O)c(C(=O)O)cn(C4CC4)c3c2Cl)C1 [Besifloxacin hydrochloride]	range B
OC[C@H]1O[C@@H](n2cnc3cncnc32)[C@H](O)[C@@H]1O	range B

Sort CCn1cc(C(=O)O)c(=O)c2cc(F)c(N3CCNCC3)cc21 into one of the categories.
range C

Sort C[C@@H](O)[C@H]1C(=O)N2C(C(=O)O)=C(S[C@@H]3CN[C@H](CNS(N)(=O)=O)C3)[C@H](C)[C@H]12 [Doripenem monohydrate] into one of the categories.
range A

###

tested on: Ruminococcus gnavus DSM 108212; test: growth (OD595) fold change vs plate DMSO controls (fold change (ratio)); higher = more growth; conditions: 5 µM; incubation time: 27 h, anaerobic, 37 °C
Where a name gives a salt, the structure may show the parent alone.
Consider the following partition of reported growth into named classes: LOW (below 0.4), MEDIUM (0.4 to below 0.8), HIGH (0.8 or more)

MOLECULE	DISCRETE LABEL
OC[C@H]1O[C@@H](n2cnc3cncnc32)[C@H](O)[C@@H]1O	LOW
CS(=O)(=O)c1ccc([C@@H](O)[C@@H](CF)NC(=O)C(Cl)Cl)cc1	LOW
CCn1cc(C(=O)O)c(=O)c2cc(F)c(N3CCNCC3)cc21	MEDIUM
O=C(N[C@H](CO)[C@H](O)c1ccc([N+](=O)[O-])cc1)C(Cl)Cl	MEDIUM
COc1c(N2C[C@@H]3CCCN[C@@H]3C2)c(F)cc2c(=O)c(C(=O)O)cn(C3CC3)c12	MEDIUM
C[C@@H](O)[C@H]1C(=O)N2C(C(=O)O)=C(S[C@@H]3CN[C@H](CNS(N)(=O)=O)C3)[C@H](C)[C@H]12 [Doripenem monohydrate]	LOW
N[C@@H]1CCCCN(c2c(F)cc3c(=O)c(C(=O)O)cn(C4CC4)c3c2Cl)C1 [Besifloxacin hydrochloride]	LOW
Cc1cc(O)c(C(=O)N[C@@H](C(=O)N[C@@H]2C(=O)N3C(C(=O)O)=C(CSc4nnnn4C)CS[C@H]23)c2ccc(O)cc2)cn1 [Cefpiramide]	HIGH

Consider the record given below.
Sort Cn1nnnc1SCC1=C(C(=O)O)N2C(=O)[C@@H](NC(=O)[C@H](O)c3ccccc3)[C@H]2SC1 [Cefamandole sodium salt] into one of the categories.
HIGH
